# Test system: OVCAR-5 ovarian
# measurement_protocol: NCI tumour cell line growth inhibition, 48 h; in the data active means GI50 below about 0.43 µM; inactive means the rest
Outcome codes: YES (active), NO (inactive)

>>> class_name("N#CSc1c[nH]c2cccc(/C=C/C(=O)/C=C(O)/C=C/c3cccc4[nH]cc(SC#N)c34)c12")
"NO"
>>> class_name("O=C(CNC(=O)c1cccc2ccccc12)Nc1ccccc1Oc1ccc(O)cc1")
"NO"
>>> class_name("COC(=O)[C@@H](C)C[C@H](Cc1ccccc1)NC(=O)c1nc([C@@H](C[C@H](C(C)C)N(C)C(=O)[C@@H](NC(=O)[C@H]2CC(=O)CCN2C)C(C)C)OC(C)=O)sc1C(C)C")
"NO"
>>> class_name("O=c1c2cc(F)ccc2sc2c(NCCCNCCO)nc3ccc(F)cc3c12")
"NO"
>>> class_name("C=C(C)[C@@H]1CC[C@]2(C(=O)OC)CC[C@]3(C)[C@H](CC[C@@H]4[C@@]5(C)CC/C(=N\\OCCC(=NCCC#N)NOCCC#N)C(C)(C)[C@@H]5CC[C@]43C)[C@@H]12")
"NO"
>>> class_name("CN(C)c1ccc(-c2cc(-c3cccc(NS(C)(=O)=O)c3)nc(N)c2C#N)cc1")
"YES"
>>> class_name("CN(C)CCCn1c2c(c3ccc(N4CCNCC4)cc3c1=O)C(=O)c1ccccc1-2")
"NO"
>>> class_name("CCCN1CCCC(c2ccc(Nc3nc(Nc4cc(F)ccc4C(N)=O)c4cc[nH]c4n3)c(OC)c2)C1 (stereo not drawn)")
"NO"

###

# System: SF-539 CNS
# measurement_protocol: NCI tumour cell line growth inhibition, 48 h
Where a SMILES comes first, the peptide text is derived from it. The star is where a group is joined. Boc = CC(C)(C)OC(=O)*; OtBu = CC(C)(C)O*
endpoint_label: TGI

>>> obs_value("N#CC(C#N)=CNC(=S)Nc1ccc(S(=O)(=O)Nc2nccs2)cc1")
"> 100 µM"
>>> obs_value("O=[N+]([O-])C1=Cc2c(O)ccc(O)c2C2c3ccccc3NC12 (centres undefined)")
"63 µM"
>>> obs_value("CC(=O)O[C@@H]1[C@H]2O[C@H]2[C@H]2O[C@@]2(COC(=O)c2ccccc2)[C@H]1OC(C)=O")
"> 100 µM"
>>> obs_value("CCOc1ccc(/C=C/C(=O)c2sc(NNC(C)=O)nc2C)cc1")
"> 100 µM"
>>> obs_value("CC(C)(C)OC(=O)CC(NC(=O)OC(C)(C)C)C(=O)NC(Cc1ccccc1)C(N)=O (centres undefined) (Boc-Asp(OtBu)-Phe-NH2; configuration not given here)")
"> 100 µM"
>>> obs_value("NCCCc1nonc1C(=O)O")
"> 100 µM"
>>> obs_value("C[N+](C)(C)CC(=O)N/N=C\\c1c(O)ccc2ccccc12")
"> 100 µM"
>>> obs_value("CC(=O)Nc1ccc2c3c(cc(O)c2c1)N(C(=O)CCCCCCC(=O)Nc1ccc2c4c(cc(O)c2c1)N(C(=O)OC(C)(C)C)CC4CCl)CC3CCl (centres undefined)")
"0.396 µM"
>>> obs_value("CC/C(=C\\c1ccc(N(C)C)cc1)c1ccncc1")
"74.6 µM"

###

# System: PC-3 prostate
# measurement_protocol: NCI tumour cell line growth inhibition, 48 h; in the data active = GI50 below about 0.43 µM; inactive = the rest
Classes used: class 1 for active, class 0 for inactive

>>> class_name("CN(C)CCCn1c2c(c3ccc(N4CCNCC4)cc3c1=O)C(=O)c1ccccc1-2")
"class 0"
>>> class_name("N#CSc1c[nH]c2cccc(/C=C/C(=O)/C=C(O)/C=C/c3cccc4[nH]cc(SC#N)c34)c12")
"class 1"
>>> class_name("CN(C)c1ccc(-c2cc(-c3cccc(NS(C)(=O)=O)c3)nc(N)c2C#N)cc1")
"class 1"
>>> class_name("CC(C)c1c(C(=O)Nc2ccccc2)c(-c2ccccc2)c(-c2ccc(F)cc2)n1CC[C@@H](O)C[C@@H](O)CC(=O)O")
"class 0"
>>> class_name("NC1=Nc2cc(OCCCCN3Cc4ccccc4C3)c(OCC3CC3)cc2C12CCCC2")
"class 0"
>>> class_name("CC[C@@]12CC(C(=O)OC)=C3Nc4ccccc4[C@@]34CCN(C[C@H]3O[C@H]31)[C@@H]24")
"class 0"
>>> class_name("N=C(N)c1ccc(-c2ccc(-c3cccs3)s2)cc1F")
"class 0"
>>> class_name("Cc1ccccc1C1N=C2Oc3ccccc3C=C2C(=O)N1 (stereo not given)")
"class 0"
>>> class_name("CC(C)OC(=O)OCOP(=O)(OCOC(=O)OC(C)C)C1CCCN(O)C1=O (stereo not given)")
"class 0"
>>> class_name("COC(=O)[C@@H](C)C[C@H](Cc1ccccc1)NC(=O)c1nc([C@@H](C[C@H](C(C)C)N(C)C(=O)[C@@H](NC(=O)[C@H]2CC(=O)CCN2C)C(C)C)OC(C)=O)sc1C(C)C")
"class 1"
>>> class_name("COc1cc(C(=O)N[C@@H]2CCCN(C)C2)ccc1Nc1ncc2c(n1)N(C1CCCC1)CC(C)(C)C(=O)N2C")
"class 1"
>>> class_name("N#CCC1CCN(c2nc(Nc3ccc(N4CCC(O)CC4)cc3)c3c(=O)[nH]ncc3n2)CC1")
"class 0"
>>> class_name("O=c1c2cc(F)ccc2sc2c(NCCCNCCO)nc3ccc(F)cc3c12")
"class 0"
>>> class_name("CCOc1ccc(-c2nc3ccc(-c4nc5ccc(N6CCN(C)CC6)cc5[nH]4)cc3[nH]2)cc1OCC")
"class 0"
>>> class_name("COc1cc2nc(NC3CCC3)nc(NC3CCN(C(C)C)CC3)c2cc1OC")
"class 0"
